Test system: LG0703-F498-PDC complex spheroid growth
Experiment: Anticancer human tumor LG0703-F498-PDC patient-derived lung adenocarcinoma cell line growth inhibition [AhR]; active = viability on the fitted dose curve at most 10% of control; inactive = the rest
Conditions: second compound 0.1 µM; first compound 10 µM
Labels: active, inactive

>  <compound>
COc1cccc2c1C(=O)c1c(O)c3c(c(O)c1C2=O)CC(O)(C(=O)CO)CC3OC1CC(N)C(O)C(C)O1 (stereo not given) + CC(CO)NC(=O)c1cc(-c2ccc(Cl)cc2)nn(-c2cnn(C)c2)c1=O

>  <assigned.label>
active

$$$$
>  <compound>
COc1ccc([C@@H](O)c2cc(-c3ncnc4cc(N5CCOCC5)ccc34)c(F)cc2Cl)nn1 + Cc1cncc(-c2nc(NCCc3c[nH]c4ccccc34)c3ncn(C(C)C)c3n2)c1

>  <assigned.label>
inactive

$$$$
>  <compound>
CC1(C)CCC(CN2CCN(c3ccc(C(=O)NS(=O)(=O)c4ccc(NCC5CCOCC5)c([N+](=O)[O-])c4)c(Oc4cnc5[nH]ccc5c4)c3)CC2)=C(c2ccc(Cl)cc2)C1 + Cc1cncc(-c2nc(NCCc3c[nH]c4ccccc34)c3ncn(C(C)C)c3n2)c1

>  <assigned.label>
inactive

$$$$
>  <compound>
COc1ccc([C@@H](O)c2cc(-c3ncnc4cc(N5CCOCC5)ccc34)c(F)cc2Cl)nn1 + CC(CO)NC(=O)c1cc(-c2ccc(Cl)cc2)nn(-c2cnn(C)c2)c1=O

>  <assigned.label>
inactive

$$$$
>  <compound>
O=C(c1cc(Cc2n[nH]c(=O)c3ccccc23)ccc1F)N1CCN(C(=O)C2CC2)CC1 + Cc1ccccc1N=Nc1ccc(NC(=O)c2ccnn2C)c(C)c1

>  <assigned.label>
inactive

$$$$

###

Below, each entry is listed alongside its reported IC50.
Tested on: LG0703-F498-PDC complex spheroid growth
Test: Anticancer human tumor LG0703-F498-PDC cell line growth inhibition [AhR];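 note: luminescence taken as a proxy for viable cell amount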
Conditions: curve of first compound; second compound 3.16 µM

>  <molecule>
CC(C)c1c(-c2ccccc2)nc2c(C#N)c[nH]n2c1=O + Cc1cncc(-c2nc(NCCc3c[nH]c4ccccc34)c3ncn(C(C)C)c3n2)c1

>  <IC50>
< 31.6 nM

$$$$
>  <molecule>
CC1COCCN1c1cc(C2(S(C)(=N)=O)CC2)nc(-c2ccnc3[nH]ccc23)n1 (stereo unspecified) + Cc1cncc(-c2nc(NCCc3c[nH]c4ccccc34)c3ncn(C(C)C)c3n2)c1

>  <IC50>
< 31.6 nM

$$$$
>  <molecule>
COc1cc(Nc2ncc3c(n2)-c2ccc(Cl)cc2C(c2c(F)cccc2OC)=NC3)ccc1C(=O)O + Cc1cncc(-c2nc(NCCc3c[nH]c4ccccc34)c3ncn(C(C)C)c3n2)c1

>  <IC50>
< 31.6 nM

$$$$
>  <molecule>
CC(C)CC(NC(=O)C(Cc1ccccc1)NC(=O)c1cnccn1)B(O)O (stereo unspecified) + Cc1cncc(-c2nc(NCCc3c[nH]c4ccccc34)c3ncn(C(C)C)c3n2)c1

>  <IC50>
1.12 nM

$$$$
>  <molecule>
COc1cccc2c1C(=O)c1c(O)c3c(c(O)c1C2=O)CC(O)(C(=O)CO)CC3OC1CC(N)C(O)C(C)O1 (stereo unspecified) + Cc1cncc(-c2nc(NCCc3c[nH]c4ccccc34)c3ncn(C(C)C)c3n2)c1

>  <IC50>
< 31.6 nM

$$$$
>  <molecule>
O=C(c1cc(Cc2n[nH]c(=O)c3ccccc23)ccc1F)N1CCN(C(=O)C2CC2)CC1 + Cc1cncc(-c2nc(NCCc3c[nH]c4ccccc34)c3ncn(C(C)C)c3n2)c1

>  <IC50>
< 31.6 nM

$$$$

###

System: LG0703-F498-PDC complex spheroid growth
Assay: Anticancer human tumor LG0703-F498-PDC cell line growth inhibition [AhR];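 note: luminescence taken as a proxy for viable cell amount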;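 for viability, T/C: percent of DMSO vehicle control where 100% means growth equal to vehicle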
Conditions: second compound 10 µM; first compound 0.316 µM; stronger effect = lower value
value.kind: viability, T/C (%)

>  <compound>
COc1ccc([C@@H](O)c2cc(-c3ncnc4cc(N5CCOCC5)ccc34)c(F)cc2Cl)nn1 + Cc1cncc(-c2nc(NCCc3c[nH]c4ccccc34)c3ncn(C(C)C)c3n2)c1

>  <value>
1.42

$$$$
>  <compound>
Nc1ccccc1NC(=O)c1ccc(CNC(=O)OCc2cccnc2)cc1 + Cc1ccccc1N=Nc1ccc(NC(=O)c2ccnn2C)c(C)c1

>  <value>
79.4

$$$$
>  <compound>
CC1(C)CCC(CN2CCN(c3ccc(C(=O)NS(=O)(=O)c4ccc(NCC5CCOCC5)c([N+](=O)[O-])c4)c(Oc4cnc5[nH]ccc5c4)c3)CC2)=C(c2ccc(Cl)cc2)C1 + Cc1cncc(-c2nc(NCCc3c[nH]c4ccccc34)c3ncn(C(C)C)c3n2)c1

>  <value>
1.56

$$$$
>  <compound>
COc1cc(Nc2ncc3c(n2)-c2ccc(Cl)cc2C(c2c(F)cccc2OC)=NC3)ccc1C(=O)O + Cc1cncc(-c2nc(NCCc3c[nH]c4ccccc34)c3ncn(C(C)C)c3n2)c1

>  <value>
2.07

$$$$
>  <compound>
CC(C)c1c(-c2ccccc2)nc2c(C#N)c[nH]n2c1=O + CC(CO)NC(=O)c1cc(-c2ccc(Cl)cc2)nn(-c2cnn(C)c2)c1=O

>  <value>
66.2

$$$$
>  <compound>
COc1cc(C2c3cc4c(cc3C(OC3OC5COC(C)OC5C(O)C3O)C3COC(=O)C23)OCO4)cc(OC)c1O (stereo unspecified) + Cc1ccccc1N=Nc1ccc(NC(=O)c2ccnn2C)c(C)c1

>  <value>
93.5

$$$$
>  <compound>
CC1(C)CCC(CN2CCN(c3ccc(C(=O)NS(=O)(=O)c4ccc(NCC5CCOCC5)c([N+](=O)[O-])c4)c(Oc4cnc5[nH]ccc5c4)c3)CC2)=C(c2ccc(Cl)cc2)C1 + Cc1ccccc1N=Nc1ccc(NC(=O)c2ccnn2C)c(C)c1

>  <value>
96.2

$$$$
>  <compound>
Nc1ccn(C2OC(CO)C(O)C2(F)F)c(=O)n1 (stereo unspecified) + CC(CO)NC(=O)c1cc(-c2ccc(Cl)cc2)nn(-c2cnn(C)c2)c1=O

>  <value>
45

$$$$
>  <compound>
Nc1ccccc1NC(=O)c1ccc(CNC(=O)OCc2cccnc2)cc1 + CC(CO)NC(=O)c1cc(-c2ccc(Cl)cc2)nn(-c2cnn(C)c2)c1=O

>  <value>
48.1

$$$$
>  <compound>
CC1COCCN1c1cc(C2(S(C)(=N)=O)CC2)nc(-c2ccnc3[nH]ccc23)n1 (stereo unspecified) + Cc1ccccc1N=Nc1ccc(NC(=O)c2ccnn2C)c(C)c1

>  <value>
95.4

$$$$
>  <compound>
NS(=O)(=O)OCC1CC(n2ccc3c(NC4CCc5ccccc54)ncnc32)CC1O (stereo unspecified) + CC(CO)NC(=O)c1cc(-c2ccc(Cl)cc2)nn(-c2cnn(C)c2)c1=O

>  <value>
60.5

$$$$

###

Below, each entry is listed alongside its reported viability, T/C.
Test system: LG0703-F498-PDC complex spheroid growth
Test: Anticancer human tumor LG0703-F498-PDC cell line growth inhibition [AhR];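 note: luminescence taken as a proxy for viable cell amount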;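 for viability, T/C: percent of DMSO vehicle control where 100% means growth equal to vehicle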
Conditions: second compound 10 µM; first compound 10 µM; stronger effect = lower value

>  <molecule>
NS(=O)(=O)OCC1CC(n2ccc3c(NC4CCc5ccccc54)ncnc32)CC1O (stereo not drawn) + Cc1cncc(-c2nc(NCCc3c[nH]c4ccccc34)c3ncn(C(C)C)c3n2)c1

>  <viability, T/C (%)>
5.98

$$$$
>  <molecule>
COc1cc(Nc2ncc3c(n2)-c2ccc(Cl)cc2C(c2c(F)cccc2OC)=NC3)ccc1C(=O)O + Cc1ccccc1N=Nc1ccc(NC(=O)c2ccnn2C)c(C)c1

>  <viability, T/C (%)>
38

$$$$
>  <molecule>
CC1(C)CCC(CN2CCN(c3ccc(C(=O)NS(=O)(=O)c4ccc(NCC5CCOCC5)c([N+](=O)[O-])c4)c(Oc4cnc5[nH]ccc5c4)c3)CC2)=C(c2ccc(Cl)cc2)C1 + Cc1ccccc1N=Nc1ccc(NC(=O)c2ccnn2C)c(C)c1

>  <viability, T/C (%)>
37.7

$$$$

###

Test system: LG0703-F498-PDC complex spheroid growth
Assay: Anticancer human tumor LG0703-F498-PDC cell line growth inhibition [AhR];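 note: luminescence taken as a proxy for viable cell amount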;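 for viability, T/C: percent of DMSO vehicle control where 100% means growth equal to vehicle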
Settings: second compound 0.1 µM; first compound 10 µM; stronger effect = lower value
Excerpt: Multicellular complex tumor spheroid response to aryl hydrocarbon receptor antagonists in combination with a variety of drugs and investigational agents in selected tumor cell lines […] Compounds. […] If the clinical Cmax for an agent had not been determined, the highest concentration tested was 10 microM (Table 1). […]
Binarize viability, T/C at 50%; below is MET, at or above is NOT MET.

>  <compound>
Nc1ccccc1NC(=O)c1ccc(CNC(=O)OCc2cccnc2)cc1 + Cc1cncc(-c2nc(NCCc3c[nH]c4ccccc34)c3ncn(C(C)C)c3n2)c1

>  <system.under.test>
LG0703-F498-PDC complex spheroid growth

>  <assigned.label>
MET

$$$$
>  <compound>
NS(=O)(=O)OCC1CC(n2ccc3c(NC4CCc5ccccc54)ncnc32)CC1O (stereo unspecified) + Cc1cncc(-c2nc(NCCc3c[nH]c4ccccc34)c3ncn(C(C)C)c3n2)c1

>  <system.under.test>
LG0703-F498-PDC complex spheroid growth

>  <assigned.label>
MET

$$$$
>  <compound>
CC1COCCN1c1cc(C2(S(C)(=N)=O)CC2)nc(-c2ccnc3[nH]ccc23)n1 (stereo unspecified) + CC(CO)NC(=O)c1cc(-c2ccc(Cl)cc2)nn(-c2cnn(C)c2)c1=O

>  <system.under.test>
LG0703-F498-PDC complex spheroid growth

>  <assigned.label>
NOT MET

$$$$
>  <compound>
Nc1ccn(C2OC(CO)C(O)C2(F)F)c(=O)n1 (stereo unspecified) + CC(CO)NC(=O)c1cc(-c2ccc(Cl)cc2)nn(-c2cnn(C)c2)c1=O

>  <system.under.test>
LG0703-F498-PDC complex spheroid growth

>  <assigned.label>
MET

$$$$
>  <compound>
CC1COCCN1c1cc(C2(S(C)(=N)=O)CC2)nc(-c2ccnc3[nH]ccc23)n1 (stereo unspecified) + Cc1ccccc1N=Nc1ccc(NC(=O)c2ccnn2C)c(C)c1

>  <system.under.test>
LG0703-F498-PDC complex spheroid growth

>  <assigned.label>
NOT MET

$$$$
>  <compound>
NS(=O)(=O)OCC1CC(n2ccc3c(NC4CCc5ccccc54)ncnc32)CC1O (stereo unspecified) + Cc1ccccc1N=Nc1ccc(NC(=O)c2ccnn2C)c(C)c1

>  <system.under.test>
LG0703-F498-PDC complex spheroid growth

>  <assigned.label>
MET

$$$$
